- test-protocol: Caspase-3/7 induction in CHO-K1 cells by small molecules, qHTS assay (AID 1346980); further: nearly all actives have a fitted effect of over 15% in size
- condition-parameters: CHO-K1 caspase-3/7 induction, Caspase-Glo luminescence, 17 h; series mostly up to 92.4 µM
- Excerpt: National Center for Advancing Translational Sciences [NCATS] NIH Chemical Genomics Center [NCGC] U.S. Environmental Protection Agency [EPA] National Institutes of Environmental Health Sciences [NIEHS] National Toxicology Program [NTP] Apoptosis is a process of programmed cell death and plays a central role in the development of multicellular organisms. […]
Active and inactive are the calls of the source. The call rests on the fitted dose curve; in most records, active means well fitted activation curve with a large enough effect in the repeat runs; inconclusive means weak or mixed curves; inactive means flat fitted curve, though single readings scatter.
quantity-measured: caspase-3/7 activation

CC1(C)C(=O)NC(=O)N1CO :: inactive
N#C[C@@H]1CC(F)(F)CN1C(=O)CNC1CC2CCC(C1)N2c1ncccn1 (stereo partly drawn) :: inactive
CCCCOc1ccc(N)cc1 :: inactive

* * *

- target-system: Cytochrome P450 1A2 (Homo sapiens) (UniProt P05177)
- Sequence (P05177 whole entry, looked up): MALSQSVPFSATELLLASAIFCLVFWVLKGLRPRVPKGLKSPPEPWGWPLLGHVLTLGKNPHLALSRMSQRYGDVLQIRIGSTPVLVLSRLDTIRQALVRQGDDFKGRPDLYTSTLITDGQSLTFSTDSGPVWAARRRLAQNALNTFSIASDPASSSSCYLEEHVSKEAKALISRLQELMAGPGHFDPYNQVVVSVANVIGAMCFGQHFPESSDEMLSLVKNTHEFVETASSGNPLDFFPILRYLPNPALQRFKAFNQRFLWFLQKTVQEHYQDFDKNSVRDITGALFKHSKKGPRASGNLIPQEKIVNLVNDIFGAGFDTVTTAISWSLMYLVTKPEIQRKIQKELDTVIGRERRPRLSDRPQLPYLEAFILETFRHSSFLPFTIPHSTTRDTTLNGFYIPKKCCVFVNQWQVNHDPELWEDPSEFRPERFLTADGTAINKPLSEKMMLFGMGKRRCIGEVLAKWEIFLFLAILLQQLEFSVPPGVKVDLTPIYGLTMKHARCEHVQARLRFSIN
- test-protocol: Cytochrome P450 Family 1 Subfamily A Member 2 (CYP1A2) small molecule antagonists: luciferase reporter qHTS assay (AID 1671199); further: nearly all actives have a fitted effect of over 50% in size; further: potency means the concentration at half of the fitted maximal effect
- condition-parameters: P450-Glo CYP1A2 enzyme, luciferin luminescence, 1 h; series mostly up to 115 µM
- From the text: National Center for Advancing Translational Sciences [NCATS] U.S. Environmental Protection Agency [EPA] National Institutes of Environmental Health Sciences [NIEHS] National Toxicology Program [NTP] U.S. Food and Drug Administration [FDA] Cytochrome P450 (CYP) enzymes are membrane-bound hemeproteins that play a key role in metabolism of drugs and xenobiotics. […] The luciferin products formed are detected with a luciferin detection reagent, and the amount of light produced is proportional to CYP activity. […]
Records with an inconclusive call do not appear. Active and inactive are the calls of the source. The call rests on the fitted dose curve; in most records, active means well fitted inhibition curve with a large enough effect in the repeat runs; inconclusive means weak or mixed curves; inactive means no such curve, though single readings can be large or run the other way.
quantity-measured: Potency

Take a look at these entries with their results.
CO[C@@H]1COCC[C@@H]1N[C@@H]1CC[C@@](C(=O)N2CCc3ncc(C(F)(F)F)cc3C2)(C(C)C)C1 :: inactive
CC(C(=O)O)c1ccc(/C=C2\CCCCC2=O)cc1 (centres undefined) :: inactive
CC1(C)[C@@H]2CC[C@]3(C2)[C@@H]1C(=O)CCC3(C)C :: inactive
O=C(O)c1cc(C(=O)O)c(C(=O)O)cc1C(=O)O :: inactive
CC(=O)c1ccc(Cl)c(Cl)c1Cl :: 11.2 µM (active)
Cc1cc(C)n(CO)n1 :: inactive
CC1(C)CC(=O)CC(C)(C)N1 :: inactive
O=C(OC1C[C@H]2CC[C@@H](C1)[N+]21CCCC1)C(O)(c1ccccc1)c1ccccc1 (some centres undefined) :: inactive

Lookup: Entry CC(C)=CCC[C@H](C)CCO , system Cytochrome P450 1A2 (Homo sapiens) (UniProt P05177): what Potency was measured?
Found: inactive

Lookup: Would you mind doing CC(=O)OCC(=O)[C@@]1(O)CC[C@H]2[C@@H]3CCC4=CC(=O)C=C[C@]4(C)[C@@]3(F)[C@@H](O)C[C@@]21C as well?
Found: inactive

* * *

- test-protocol: qHTS assay for identifying genotoxic compounds that show differential cytotoxicity against isogenic chicken DT40 cell lines with known DNA damage response pathways - Rev3 mutant cell line (AID 743014); further: nearly all actives have a fitted effect of over 55% in size
- condition-parameters: chicken DT40 Rev3-/- viability, CellTiter-Glo, 40 h; series mostly up to 68.4 µM
Results filed as inconclusive are left out. Activity calls are given as the source filed them. Calls follow the shape of the dose curve; as a rule, active = well fitted cell-killing curve with a large enough effect in the repeat runs; inconclusive = weak or mixed curves, or effect the other way; inactive = no such curve, though single readings can be large or run the other way.
Could you please pick one outcome from this set? active, inactive

Lookup: Test call for this compound, please: C[C@H](CN1CCCC1)C(=O)c1ccc(C(F)(F)F)cc1
Found: active

Lookup: What would you report for CCCCCCCCCCCCSC#N ?
Found: inactive

Lookup: Another compound to check: N#CCCCC(C#N)CCC#N (stereo not given)
Found: inactive

Lookup: Then CC(O)C(C)O (stereo not given) ?
Found: inactive

Lookup: Likewise for CC1(COc2ccc(CC3SC(=O)NC3=O)cc2)CCCCC1 (stereo not given) ?
Found: active

Lookup: // same read-out, input: C=C(C)C(=O)OCCCCCCCCCCOC(=O)C(=C)C
Found: active

Lookup: And for C[C@]12CCC(=O)C=C1[C@@H]1C[C@@H]1[C@H]1[C@@H]3[C@@H]4C[C@@H]4[C@@]4(CCC(=O)O4)[C@@]3(C)CC[C@@H]12 ?
Found: active

Lookup: Do the same for CNc1ccccc1 please
Found: inactive

Lookup: Now the compound CC1=C(C)C(=O)C(C(CCCCCC(=O)O)c2ccccc2)=C(C)C1=O (stereo not given)
Found: inactive

Lookup: Same read-out for Cc1c(N=C=O)cccc1N=C=O ?
Found: inactive

Lookup: Another compound to look at: FC1(F)C(F)(F)C(F)(F)C2(F)C(F)(C1(F)F)C(F)(F)C(F)(F)C1(F)C(F)(F)C(F)(F)C(F)(F)C(F)(F)C12F (stereo not given)
Found: inactive

Lookup: Record: CC(C(=O)O)c1ccc2c(c1)Cc1cccnc1O2 (stereo not given)
Found: inactive

Lookup: Proceed to CCC(C)C1N=C(C)C(C)S1 (stereo not given)
Found: inactive

Lookup: Can you check SCCOCCOCCS next?
Found: inactive

Lookup: Follow-up entry: Clc1ccccc1-c1nc(-c2ccncc2)no1
Found: inactive

* * *

- test-protocol: A CellTox Green Cytotoxicity Assay to monitor cytotoxicity in HEK293 cells - 32 hour (AID 1224881); further: nearly all actives have a fitted effect of over 40% in size
- condition-parameters: CellTox Green fluorescence; series mostly up to 76.8 µM
Records with an inconclusive call do not appear. Active and inactive are the calls of the source. Calls follow the shape of the dose curve; as a rule, active = well fitted activation curve with a large enough effect in the repeat runs; inconclusive = weak or mixed curves; inactive = flat fitted curve, though single readings scatter.
Please state which outcome applies, choosing from active, inactive

Lookup: Query: recorded result category for O=C(O)c1cc(C(=O)O)c(C(=O)O)cc1C(=O)O in this test
Found: inactive

Lookup: One more compound: CC(C)C[C@H](NC(=O)[C@H](Cc1ccccc1)NC(=O)c1cnccn1)B(O)O
Found: active

Lookup: And what about the compound CC(Cc1ccccc1)(NC(=O)CN)c1ccccc1 (centres undefined) ?
Found: inactive

Lookup: Let us now turn to CCCCCCC/C=C/C=O
Found: inactive

* * *

- test-protocol: qHTS assay to identify small molecule agonists of the farnesoid-X-receptor (FXR) signaling pathway - cell viability counter screen (AID 743218); further: nearly all actives have a fitted effect of over 45% in size
- condition-parameters: FXR-bla HEK293T viability, CellTiter-Glo luminescence, 16 h; series mostly up to 62.6 µM
Records with an inconclusive call do not appear. Active and inactive are the calls of the source. Calls come from the whole dose curve; as a rule, active = well fitted cell-killing curve with a large enough effect in the repeat runs; inconclusive = weak or mixed curves, or effect the other way; inactive = no such curve, though single readings can be large or run the other way.
Returns: one label drawn from active, inactive

Lookup: Name the outcome recorded for NC(=O)c1cc[n+](CC2=C(C(=O)[O-])N3C(=O)[C@@H](NC(=O)Cc4cccs4)[C@H]3SC2)cc1 in the assay.
Found: inactive

Lookup: Same thing, different compound: CC(CN=Cc1ccccc1O)N=Cc1ccccc1O (stereo not given)
Found: inactive

Lookup: Repeat for the following compound: CCOC(OCC)OCC
Found: inactive

Lookup: Consider next the compound O=C(OC1C[C@H]2CC[C@@H](C1)[N+]21CCCC1)C(O)(c1ccccc1)c1ccccc1 (stereo not given in full) in the same way.
Found: inactive

Lookup: Try this compound too: O=C(C1CCCCC1)N1CC(=O)N2CCCc3ccccc3C2C1 (stereo not given)
Found: inactive

Lookup: # repeat for O=C(c1ccco1)N1CCNCC1
Found: inactive

Lookup: Next compound up: OCC(O)c1ccccc1 (stereo not given)
Found: inactive

Lookup: Now give it for Cc1nc(C)c(C)nc1C too.
Found: inactive

Lookup: Check CCCCCCCCCCCCSC#N too.
Found: inactive

Lookup: Param item: C[C@H](CN1CCCC1)C(=O)c1ccc(C(F)(F)F)cc1
Found: inactive

Lookup: Then this compound: N#C[C@@H]1CC(F)(F)CN1C(=O)CNC1CC2CCC(C1)N2c1ncccn1 (stereo not given in full)
Found: inactive

Lookup: Now try Oc1ccc(Oc2ccccc2)cc1 .
Found: inactive

Lookup: Field entry: O=S(=O)(O)c1cc(Cl)c(Cl)cc1Cl
Found: inactive

Lookup: Also check CCOc1cc(OCC)c(C(C)=O)cc1OCC
Found: inactive

Lookup: Same thing, different compound: Cc1nc2sccn2c(=O)c1CCN1CCC(=C(c2ccc(F)cc2)c2ccc(F)cc2)CC1
Found: active

Lookup: Can you check O=C(N[C@@H](Cc1ccccc1)[C@@H](O)C(=O)N1C[C@@H](O)[C@@H](O)C1)c1cc2cc(Cl)ccc2[nH]1 next?
Found: inactive

Lookup: Moving on to the next compound: O=C(O)c1cccnc1Nc1cccc(C(F)(F)F)c1
Found: inactive

Lookup: What about CC(Cc1ccccc1)(NC(=O)CN)c1ccccc1 (stereo not given) ?
Found: inactive

Lookup: Now the compound O=C(O)CCc1nc2ccccc2[nH]1
Found: inactive

Lookup: Also need O=C(Nc1ccc2c(c1)Cc1ccccc1-2)C(F)(F)F , thanks.
Found: inactive

Lookup: Repeat for the following compound: CO[C@@H]1COCC[C@@H]1N[C@@H]1CC[C@@](C(=O)N2CCc3ncc(C(F)(F)F)cc3C2)(C(C)C)C1
Found: inactive

Lookup: Again, but for CC(C)Cc1nccs1
Found: inactive

Lookup: Similarly, NCCOCCOCCN ?
Found: active

Lookup: Note, next up: CC[C@H](NC(C)C)[C@H](O)c1ccc(O)c2[nH]c(=O)ccc12
Found: inactive

Lookup: Same question, CCCCCCCCCCCCCCCCN this time
Found: inactive

Lookup: Next: CCCCCCCCS
Found: inactive

Lookup: // query: CCOC(C)OCC
Found: inactive

Lookup: Next compound up: Cc1c(N=C=O)cccc1N=C=O
Found: inactive

Lookup: Now give it for O=C(O)c1ccccc1-n1cc(C(=O)O)c(=O)c2cc(Nc3c(F)cc(F)cc3Cl)c(Cl)cc21 too.
Found: inactive

Lookup: Record: O=C(O)c1c2ccccc2cc2ccccc12
Found: inactive

Lookup: Again, but for C=C(C)C(=O)OCCCCCCCCCCOC(=O)C(=C)C
Found: inactive

Lookup: Follow-up item: C=CC(C)CCC=C(C)C (stereo not given)
Found: inactive

Lookup: Thanks! And CC(=O)c1ccc(Cl)c(Cl)c1Cl ?
Found: inactive

Lookup: // repeat for O=[N+]([O-])c1ccc(Cl)cc1Cl and report
Found: inactive

Lookup: Proceed to CCCCOC(=O)C(C)Oc1ccc(Oc2ccc(C(F)(F)F)cn2)cc1 (stereo not given)
Found: inactive
